- experimental_system: T1, M 2-EGFR E 21A (human, UniProt P00533 25-1210)
- T1 construct: whole, on cells; Transiently expressed in 293 cells and stably expressed in BaF/3 cells; also called Glu 21Ala; not shown: N-terminal FLAG tag
- assay_comment: Scatchard plot (B/F specific against Bound) of 125I-EGF binding to BaF/3 cells expressing E21A EGFR, cold ligand titration, fitted with Radlig; first (high affinity) of two sites

| binder | Kd |
| --- | --- |
| iodinated murine EGF (ligand, UniProt P01132 977-1029, looked up, 125I-iodinated (site not stated), mature; Unlabelled EGF was used for the cold titration) NSYPGCPSSYDGYCLNGGVCMHIESLDSYTCNCVIGYSGDRCQTRDLRWWELR | 0.045 nM |
